- Test system: U-251
- test_method_notes: NCI tumour cell line growth inhibition, 48 h
The source made the active and inactive calls. Rule as the data show it: active = GI50 up to about 1.1 µM and inactive = higher.
Recorded GI50, one value per entry.
value_type: GI50

molecule=CN(C)NC(=S)NC12CC3CC(CC(C3)C1)C2 observed_value="> 100 µM (inactive)"
molecule=Cc1nc(C(N)=S)sc1C(=O)/C=C/c1c(O)ccc2ccccc12 observed_value="> 100 µM (inactive)"
molecule=COc1ccc(/C=N/NS(=O)(=O)c2ccc(/C=C3\NC(=O)NC3=O)cc2)cc1 observed_value="45.2 µM (inactive)"
molecule=NNC(=O)CS(=O)(=O)Nc1ncccn1 observed_value="> 100 µM (inactive)"
molecule=O=C(NCCCN1CCN(CCCNC(=O)c2cnc3ccccc3n2)CC1)c1cnc2ccccc2n1 observed_value="> 100 µM (inactive)"
molecule="COc1ccc(C2=C(Cl)c3cc(OC)c(OC)cc3C2Cl)cc1OC (stereo unspecified)" observed_value="15.4 µM (inactive)"
molecule="c1ccc2c(c1)c1c(c3ccccc32)CN2CCCC2C1 (stereo unspecified)" observed_value="3.4 µM (inactive)"
molecule=C#CCCCOc1ncccn1 observed_value="> 100 µM (inactive)"
molecule="NC(=O)c1ncn2c(=O)n(CCCl)nnc12 [MITOZOLOMIDE]" observed_value="40.4 µM (inactive)"
molecule=Clc1ccccc1CN1COc2c(cc(Cl)c3cccnc23)C1 observed_value="3.33 µM (inactive)"
molecule=CCOc1cc2c(cnc3c4cc(OC)c(OC)cc4ccc23)cc1OC observed_value="> 100 µM (inactive)"
